target: nAchR α3β4 (Rattus norvegicus, UniProt P04757+P12392); experiment: Radioligand binding assay
Sequence (P04757 26-499): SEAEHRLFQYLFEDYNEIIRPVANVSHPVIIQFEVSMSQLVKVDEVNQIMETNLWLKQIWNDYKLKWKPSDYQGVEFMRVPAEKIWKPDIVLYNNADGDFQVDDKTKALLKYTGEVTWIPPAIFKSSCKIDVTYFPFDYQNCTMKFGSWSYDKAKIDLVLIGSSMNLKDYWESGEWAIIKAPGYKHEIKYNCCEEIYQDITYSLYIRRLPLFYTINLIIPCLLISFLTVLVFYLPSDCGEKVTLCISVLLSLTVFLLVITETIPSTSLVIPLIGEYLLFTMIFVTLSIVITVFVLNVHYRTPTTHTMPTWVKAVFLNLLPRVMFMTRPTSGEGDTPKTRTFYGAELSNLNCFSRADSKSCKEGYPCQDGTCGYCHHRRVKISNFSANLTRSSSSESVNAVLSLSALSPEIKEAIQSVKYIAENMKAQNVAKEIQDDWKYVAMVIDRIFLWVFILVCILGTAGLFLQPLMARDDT
Sequence (P12392 21-495): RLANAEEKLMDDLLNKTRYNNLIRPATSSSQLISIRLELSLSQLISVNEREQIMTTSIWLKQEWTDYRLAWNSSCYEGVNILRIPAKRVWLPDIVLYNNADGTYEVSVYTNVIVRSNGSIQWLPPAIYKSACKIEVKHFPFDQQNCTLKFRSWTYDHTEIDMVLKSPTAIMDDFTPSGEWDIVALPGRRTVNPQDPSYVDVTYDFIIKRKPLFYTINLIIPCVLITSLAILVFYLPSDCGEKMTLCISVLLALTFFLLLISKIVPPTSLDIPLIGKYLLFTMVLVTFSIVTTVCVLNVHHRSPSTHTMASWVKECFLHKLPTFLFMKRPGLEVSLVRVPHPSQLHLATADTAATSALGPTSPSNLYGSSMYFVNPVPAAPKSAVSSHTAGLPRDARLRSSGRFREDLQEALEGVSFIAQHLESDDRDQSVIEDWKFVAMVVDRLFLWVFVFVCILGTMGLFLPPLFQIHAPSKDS
outcomeMeasure: Ki (µM)
Express the result in µM but write the number alone.

NC1CCCC1c1ccccc1 (centres unmarked) [cypenamine]: 2.69

Attention now turns to another entry.
# return Ki for Clc1cccc(SC2CCNCC2)n1 [Anpirtoline] , test system: nAchR α3β4 (Rattus norvegicus, UniProt P04757+P12392)
3.41

---

molecular target: nAchR α4β4 (Rattus norvegicus, UniProt P09483+P12392); test: Radioligand binding assay
Sequence (P09483 31-630): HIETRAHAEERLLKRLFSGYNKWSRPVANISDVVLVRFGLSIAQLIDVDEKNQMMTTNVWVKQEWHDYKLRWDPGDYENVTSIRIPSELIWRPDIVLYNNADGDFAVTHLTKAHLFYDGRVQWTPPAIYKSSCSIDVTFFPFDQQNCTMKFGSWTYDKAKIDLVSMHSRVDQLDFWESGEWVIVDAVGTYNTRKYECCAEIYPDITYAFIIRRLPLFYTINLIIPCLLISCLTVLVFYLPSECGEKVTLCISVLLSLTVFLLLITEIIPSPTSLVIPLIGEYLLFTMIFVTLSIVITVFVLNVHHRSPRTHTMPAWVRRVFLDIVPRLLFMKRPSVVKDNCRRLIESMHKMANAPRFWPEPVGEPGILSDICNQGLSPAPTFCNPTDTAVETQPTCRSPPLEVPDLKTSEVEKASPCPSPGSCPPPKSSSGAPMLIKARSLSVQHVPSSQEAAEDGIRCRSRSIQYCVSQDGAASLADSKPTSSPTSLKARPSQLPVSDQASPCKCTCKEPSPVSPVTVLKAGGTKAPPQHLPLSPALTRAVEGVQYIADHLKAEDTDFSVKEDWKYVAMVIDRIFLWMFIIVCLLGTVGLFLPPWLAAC
Sequence (P12392 21-495): as the sequence (P12392 21-495) above
outcomeMeasure: pKi
Just so you know, pKi here is -log10 of the concentration in molar units; reply with that number alone.

Quick one: give measured pKi for NC1CCCC1c1ccccc1 (stereo not shown) [cypenamine]
5.39

---

target: human nicotinic acetylcholine receptor (nAchR) α2β4; experiment: Radioligand binding assay
outcomeMeasure: Ki
Kindly format the answer as number then unit.

Supply reported Ki belonging to this compound: NC1CCCC1c1ccccc1 (stereo not shown)
4.65 µM

---

Target: muscarinic acetylcholine receptor (mAchR) M5 (Homo sapiens, UniProt P08912)
Sequence (P08912 1-532): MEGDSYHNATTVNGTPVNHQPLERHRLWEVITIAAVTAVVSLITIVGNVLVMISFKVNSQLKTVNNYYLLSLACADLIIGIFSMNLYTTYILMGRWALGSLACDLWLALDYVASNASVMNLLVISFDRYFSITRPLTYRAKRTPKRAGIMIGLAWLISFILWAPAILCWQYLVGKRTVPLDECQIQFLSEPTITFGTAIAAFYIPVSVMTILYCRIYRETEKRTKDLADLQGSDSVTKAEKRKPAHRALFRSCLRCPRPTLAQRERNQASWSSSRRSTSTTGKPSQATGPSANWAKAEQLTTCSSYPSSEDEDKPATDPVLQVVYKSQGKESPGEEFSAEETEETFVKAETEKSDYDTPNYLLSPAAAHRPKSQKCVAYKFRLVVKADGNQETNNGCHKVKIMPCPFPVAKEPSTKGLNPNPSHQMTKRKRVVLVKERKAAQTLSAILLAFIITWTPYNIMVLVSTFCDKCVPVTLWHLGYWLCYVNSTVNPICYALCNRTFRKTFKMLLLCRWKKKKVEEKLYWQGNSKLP
outcomeMeasure: pKi
pKi field: float, defined as -log10 of concentration (mol/L).

Provide one value: measured pKi of CCC(=O)OC1(c2ccccc2)CCN(C)CC1C (stereo not shown)
6.11

The reported numbers originate from paper PMC6075869.
